Data origin: patent US11407745B2

# System: K-562 (human leukemia cancer) cells
# Assay Explanation: MTT assay, anti-proliferative effect on K-562
# Assay type: cell-based
# Setup Conditions: Homo sapiens, K562; 72 hours treatment, MTT; read-out: GI50, μm K562
I'd be grateful if you could share measured GI50 for these entries.

Supply measured GI50 of "Nc1n[nH]c2cccc(C#Cc3cccc(NC(=O)c4cc(N5CCOCC5)cc(C(F)(F)F)c4)c3)c12" in your reply.
2.14 µM

Specify reported GI50 for the molecule shown: "CCN1CCN(Cc2ccc(NC(=O)c3cccc(C#Cc4cccc5[nH]nc(N)c45)c3)cc2C(F)(F)F)CC1"
0.03 µM

State, in one line, measured GI50 of "Nc1n[nH]c2cccc(C#Cc3cccc(NC(=O)c4cccc(C(F)(F)F)c4)c3)c12"
1.45 µM

Check the records and state GI50 for "Nc1n[nH]c2cccc(C#Cc3cccc(C(=O)Nc4cc(C(F)(F)F)cc(C(F)(F)F)c4)c3)c12"
0.46 µM

* * *

Can you tell me GI50 for the items I'm about to list?
# Tested on: K-562 (human leukemia cancer) cells
# Assay Explanation: MTT assay, anti-proliferative effect on K-562
# Assay type: cell-based
# Setup Conditions: Homo sapiens, K562; 72 hours treatment, MTT; read-out: GI50, μm K562
All answers are understood in nM, so give the number only.

Please indicate GI50 recorded for Cc1cn(-c2cc(NC(=O)c3cccc(C#Cc4cccc5[nH]nc(N)c45)c3)cc(C(F)(F)F)c2)cn1 [Compound No. 11]
140

Return GI50 for the following compound: Cc1ccc(C(=O)Nc2cccc(C#Cc3cccc4[nH]nc(N)c34)c2)cc1C(F)(F)F [Compound No. 6]
1620

Write down GI50 measured for item Cc1cn(-c2cc(C(=O)Nc3cccc(C#Cc4cccc5[nH]nc(N)c45)c3)cc(C(F)(F)F)c2)cn1 [Compound No. 3]
120

Identify the reported GI50 for the following entry. Nc1n[nH]c2cccc(C#Cc3cccc(NC(=O)c4cc(F)cc(C(F)(F)F)c4)c3)c12 [Compound No. 4]
2100

* * *

# System Tested: DDR1 (Homo sapiens, UniProt Q08345)
# Sequence (Q08345 19-913): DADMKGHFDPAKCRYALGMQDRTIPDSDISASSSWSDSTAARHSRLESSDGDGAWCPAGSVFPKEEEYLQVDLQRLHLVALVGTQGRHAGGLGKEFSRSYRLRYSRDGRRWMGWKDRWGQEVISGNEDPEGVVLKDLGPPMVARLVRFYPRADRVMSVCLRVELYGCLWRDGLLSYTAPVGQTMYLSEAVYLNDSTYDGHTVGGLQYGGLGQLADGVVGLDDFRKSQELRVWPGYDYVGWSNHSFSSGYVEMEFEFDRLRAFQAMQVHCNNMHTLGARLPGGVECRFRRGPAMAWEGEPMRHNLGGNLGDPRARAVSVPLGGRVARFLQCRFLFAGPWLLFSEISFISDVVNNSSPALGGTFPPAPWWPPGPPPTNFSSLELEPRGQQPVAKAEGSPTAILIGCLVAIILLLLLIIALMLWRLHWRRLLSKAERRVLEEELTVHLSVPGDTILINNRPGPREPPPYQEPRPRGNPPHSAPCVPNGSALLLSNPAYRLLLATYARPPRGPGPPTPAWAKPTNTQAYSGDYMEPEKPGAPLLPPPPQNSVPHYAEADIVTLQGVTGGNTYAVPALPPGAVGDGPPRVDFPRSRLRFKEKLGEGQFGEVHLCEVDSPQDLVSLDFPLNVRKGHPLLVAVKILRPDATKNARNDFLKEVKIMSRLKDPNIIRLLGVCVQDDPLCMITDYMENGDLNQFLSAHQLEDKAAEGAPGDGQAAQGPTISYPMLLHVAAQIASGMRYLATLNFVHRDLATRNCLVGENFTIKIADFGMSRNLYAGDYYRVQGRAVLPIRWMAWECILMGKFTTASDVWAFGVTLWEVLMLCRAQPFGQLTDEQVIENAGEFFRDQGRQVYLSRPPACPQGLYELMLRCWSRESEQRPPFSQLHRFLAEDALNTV
# Assay Explanation: Hot Spot kinase assay, DDR1
# Type: biochemical
# Setup Conditions: ATP 10 μM, 25° C., 120 minutes
Would you kindly list log10 of IC50 for each of these molecules?
Would you kindly interpret these values as log10 of IC50 expressed in nM?

Tell me its log10 of IC50 given "Cc1cn(-c2cc(C(=O)Nc3cccc(C#Cc4cccc5[nH]nc(N)c45)c3)cc(C(F)(F)F)c2)cn1" as the entry.
1.12

Look up and state reported log10 of IC50 for "Nc1n[nH]c2cccc(C#Cc3cccc(NC(=O)c4cc(N5CCOCC5)cc(C(F)(F)F)c4)c3)c12"
1.30

State, in one line, measured log10 of IC50 of "CN1CCN(c2ccc(C(=O)Nc3cccc(C#Cc4cccc5[nH]nc(N)c45)c3)cc2C(F)(F)F)CC1"
1.50

Supply measured log10 of IC50 of "CCN1CCN(Cc2ccc(NC(=O)c3cccc(C#Cc4cccc5[nH]nc(N)c45)c3)cc2C(F)(F)F)CC1" in your reply.
0.57

Fill in log10 of IC50 for record "Nc1n[nH]c2cccc(C#Cc3cccc(C(=O)Nc4ccc(CN5CCOCC5)c(C(F)(F)F)c4)c3)c12"
1.21

Return log10 of IC50 for the following molecule: "Nc1n[nH]c2cccc(C#Cc3cccc(NC(=O)c4ccc(N5CCOCC5)c(C(F)(F)F)c4)c3)c12"
1.17

Supply log10 of IC50 value. Item: "Nc1n[nH]c2cccc(C#Cc3cccc(NC(=O)c4cccc(C(F)(F)F)c4)c3)c12"
1.73

State its log10 of IC50: "Nc1n[nH]c2cccc(C#Cc3cccc(C(=O)Nc4ccc(Cl)c(C(F)(F)F)c4)c3)c12"
1.30

Read the entry "Cc1cn(-c2cc(NC(=O)c3cccc(C#Cc4cccc5[nH]nc(N)c45)c3)cc(C(F)(F)F)c2)cn1" and write its reported log10 of IC50.
1.32

Quote log10 of IC50 reported for "Cc1ccc(C(=O)Nc2cccc(C#Cc3cccc4[nH]nc(N)c34)c2)cc1C(F)(F)F" please.
1.35

Please report log10 of IC50 for the following molecule: "Nc1n[nH]c2cccc(C#Cc3cccc(C(=O)Nc4cc(C(F)(F)F)cc(C(F)(F)F)c4)c3)c12"
1.52

Consider the molecule "Nc1n[nH]c2cccc(C#Cc3cccc(NC(=O)c4cc(C(F)(F)F)cc(C(F)(F)F)c4)c3)c12" and give its recorded log10 of IC50.
1.98

Fill in reported log10 of IC50 for this entry: "Nc1n[nH]c2cccc(C#Cc3cccc(NC(=O)c4cc(F)cc(C(F)(F)F)c4)c3)c12"
1.92

Look up and report measured log10 of IC50 for this entry: "Nc1n[nH]c2cccc(C#Cc3cccc(C(=O)Nc4cccc(C(F)(F)F)c4)c3)c12"
1.26

Complete the entry with log10 of IC50 for "CN1CCN(Cc2cc(NC(=O)c3cccc(C#Cc4cccc5[nH]nc(N)c45)c3)cc(C(F)(F)F)c2)CC1"
1.46

* * *

# Test system: K-562 (human leukemia cancer) cells
# Assay Explanation: MTT assay, anti-proliferative effect on K-562
# Type: cell-based
# Setup Conditions: Homo sapiens, K562; 72 hours treatment, MTT; read-out: GI50, μm K562
Observed Property: GI50 (nM)
Field format: number, assumed nM, no unit text.

Output GI50 of "Nc1n[nH]c2cccc(C#Cc3cccc(C(=O)Nc4ccc(Cl)c(C(F)(F)F)c4)c3)c12"
3330

Identify measured GI50 associated with "Nc1n[nH]c2cccc(C#Cc3cccc(C(=O)Nc4cccc(C(F)(F)F)c4)c3)c12"
3750

Could you please provide reported GI50 for "Nc1n[nH]c2cccc(C#Cc3cccc(C(=O)Nc4ccc(CN5CCOCC5)c(C(F)(F)F)c4)c3)c12" ? Thanks!
520

Consider the compound "CN1CCN(Cc2cc(NC(=O)c3cccc(C#Cc4cccc5[nH]nc(N)c45)c3)cc(C(F)(F)F)c2)CC1" . State its measured GI50.
290

* * *

For each record, write down the corresponding IC50.
# System Tested: ABL^wild (Homo sapiens)
# Sequence (P00519 whole entry): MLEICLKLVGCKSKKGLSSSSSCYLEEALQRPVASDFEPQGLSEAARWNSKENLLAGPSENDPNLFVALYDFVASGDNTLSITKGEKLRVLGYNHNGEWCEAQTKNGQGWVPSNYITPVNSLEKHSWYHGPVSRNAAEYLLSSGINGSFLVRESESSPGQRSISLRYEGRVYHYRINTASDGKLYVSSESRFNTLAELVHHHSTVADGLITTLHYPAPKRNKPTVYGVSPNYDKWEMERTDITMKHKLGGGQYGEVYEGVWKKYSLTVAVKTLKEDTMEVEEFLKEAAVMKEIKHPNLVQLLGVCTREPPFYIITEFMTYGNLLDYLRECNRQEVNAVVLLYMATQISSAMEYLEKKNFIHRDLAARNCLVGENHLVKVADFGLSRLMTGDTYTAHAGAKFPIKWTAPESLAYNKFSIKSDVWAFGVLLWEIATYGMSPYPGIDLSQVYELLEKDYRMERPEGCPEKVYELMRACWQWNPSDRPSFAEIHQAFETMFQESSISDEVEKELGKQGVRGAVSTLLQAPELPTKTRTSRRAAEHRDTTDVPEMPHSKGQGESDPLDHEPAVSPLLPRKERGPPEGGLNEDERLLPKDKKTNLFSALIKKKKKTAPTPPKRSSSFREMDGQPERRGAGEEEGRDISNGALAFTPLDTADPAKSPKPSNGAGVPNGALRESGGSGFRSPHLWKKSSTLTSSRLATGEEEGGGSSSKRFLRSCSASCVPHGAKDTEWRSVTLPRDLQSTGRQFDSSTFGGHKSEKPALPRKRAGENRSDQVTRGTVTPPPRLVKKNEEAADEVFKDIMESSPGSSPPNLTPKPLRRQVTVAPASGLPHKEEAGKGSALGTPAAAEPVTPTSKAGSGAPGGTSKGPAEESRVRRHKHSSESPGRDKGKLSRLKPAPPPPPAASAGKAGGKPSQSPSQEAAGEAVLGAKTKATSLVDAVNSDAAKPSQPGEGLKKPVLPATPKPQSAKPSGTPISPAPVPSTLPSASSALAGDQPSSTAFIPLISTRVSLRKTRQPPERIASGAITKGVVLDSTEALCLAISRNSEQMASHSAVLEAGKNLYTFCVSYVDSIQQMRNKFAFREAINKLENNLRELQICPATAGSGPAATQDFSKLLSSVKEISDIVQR
# Assay Explanation: Hot Spot kinase assay, ABL wild type
# Format: biochemical
# Setup Conditions: ATP 10 μM, 25° C., 120 minutes
The reply should contain only the number, in nM.

Identify the reported IC50 for the following entry. Nc1n[nH]c2cccc(C#Cc3cccc(NC(=O)c4cc(N5CCOCC5)cc(C(F)(F)F)c4)c3)c12 [Compound No. 5]
637

Fill in IC50 for record Nc1n[nH]c2cccc(C#Cc3cccc(NC(=O)c4cccc(C(F)(F)F)c4)c3)c12 [Compound No. 1]
313

Note IC50 for the compound shown: Nc1n[nH]c2cccc(C#Cc3cccc(NC(=O)c4ccc(N5CCOCC5)c(C(F)(F)F)c4)c3)c12 [Compound No. 8]
5.21

Complete the entry with IC50 for Nc1n[nH]c2cccc(C#Cc3cccc(NC(=O)c4cc(F)cc(C(F)(F)F)c4)c3)c12 [Compound No. 4]
172

Fill in reported IC50 for this entry: Nc1n[nH]c2cccc(C#Cc3cccc(C(=O)Nc4ccc(Cl)c(C(F)(F)F)c4)c3)c12 [Compound No. 14]
255

State its IC50 for this compound: CN1CCN(Cc2cc(NC(=O)c3cccc(C#Cc4cccc5[nH]nc(N)c45)c3)cc(C(F)(F)F)c2)CC1 [Compound No. 12]
60.5

Indicate the recorded IC50 value for this compound: Nc1n[nH]c2cccc(C#Cc3cccc(C(=O)Nc4ccc(CN5CCOCC5)c(C(F)(F)F)c4)c3)c12 [Compound No. 16]
103

Indicate the recorded IC50 value for this compound: Nc1n[nH]c2cccc(C#Cc3cccc(C(=O)Nc4cccc(C(F)(F)F)c4)c3)c12 [Compound No. 9]
210

Report IC50 for Cc1cn(-c2cc(NC(=O)c3cccc(C#Cc4cccc5[nH]nc(N)c45)c3)cc(C(F)(F)F)c2)cn1 [Compound No. 11]
15.4

Look up and report measured IC50 for this entry: Cc1cn(-c2cc(C(=O)Nc3cccc(C#Cc4cccc5[nH]nc(N)c45)c3)cc(C(F)(F)F)c2)cn1 [Compound No. 3]
17.1

Please report the measured IC50 for Cc1ccc(C(=O)Nc2cccc(C#Cc3cccc4[nH]nc(N)c34)c2)cc1C(F)(F)F [Compound No. 6]
104

Item CCN1CCN(Cc2ccc(NC(=O)c3cccc(C#Cc4cccc5[nH]nc(N)c45)c3)cc2C(F)(F)F)CC1 [Compound No. 15] : provide IC50
0.625

Consider the compound Nc1n[nH]c2cccc(C#Cc3cccc(NC(=O)c4cc(C(F)(F)F)cc(C(F)(F)F)c4)c3)c12 [Compound No. 2] and give its recorded IC50.
667

Return IC50 for the following compound: Nc1n[nH]c2cccc(C#Cc3cccc(C(=O)Nc4cc(C(F)(F)F)cc(C(F)(F)F)c4)c3)c12 [Compound No. 10]
186
